The measured values listed here are drawn from patent US11400091B2.

Target: human serum albumin (Homo sapiens, UniProt P02768)
Construct: were determined using human plasma in a dialysis plate-based assay; from tissue; host or cells: human plasma
Sequence (P02768 25-609): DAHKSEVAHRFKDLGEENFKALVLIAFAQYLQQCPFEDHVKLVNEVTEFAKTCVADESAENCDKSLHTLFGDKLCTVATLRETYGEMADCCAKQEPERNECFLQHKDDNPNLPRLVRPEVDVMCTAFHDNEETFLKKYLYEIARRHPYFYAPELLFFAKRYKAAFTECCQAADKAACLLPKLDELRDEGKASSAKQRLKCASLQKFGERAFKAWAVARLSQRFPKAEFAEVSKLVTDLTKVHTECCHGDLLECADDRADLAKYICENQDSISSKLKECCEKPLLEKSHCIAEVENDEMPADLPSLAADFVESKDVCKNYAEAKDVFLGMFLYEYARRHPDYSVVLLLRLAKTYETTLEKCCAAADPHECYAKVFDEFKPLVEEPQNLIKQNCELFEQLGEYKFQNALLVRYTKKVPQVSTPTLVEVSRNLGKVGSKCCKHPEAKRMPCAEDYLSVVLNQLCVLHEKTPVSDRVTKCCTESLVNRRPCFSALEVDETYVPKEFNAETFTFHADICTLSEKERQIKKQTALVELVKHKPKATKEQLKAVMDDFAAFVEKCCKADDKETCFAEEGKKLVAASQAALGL
Assay: Serum albumin binding, dialysis of human plasma
Format: in vitro ADME
Conditions: plasma
measured quantity: fraction unbound
Form field (numeric): enter value without unit.

**Query** Observed fraction unbound on human serum albumin (Homo sapiens, UniProt P02768) for CN1CCN(Cc2ccc(Nc3ncc(Cl)c(Nc4ccccc4S(=O)(=O)N(C)C)n3)cc2)CC1 , please.
**Result** 0.07

* * *

Assay: Relative amounts of parent and active metabolites in plasma after 21 days of dosing
Type: in vivo, human
Conditions: 16 mg/M2 dose
measured quantity: % in plasma at day 21 at 16 mg/M2 dose (FIG. 102A)

CN(C)S(=O)(=O)c1ccccc1Nc1nc(Nc2ccc(CN3CCNCC3)cc2)ncc1Cl [Form M4]: 10%
CN(C)S(=O)(=O)c1ccccc1Nc1nc(Nc2ccc(CN3CC[N+](C)([O-])CC3)cc2)ncc1Cl [Form M7]: not detected
C=C1C=CC(=Nc2ncc(Cl)c(Nc3ccccc3S(=O)(=O)N(C)C)n2)C=C1 [Form M5]: not detected
